test.name: HUVEC growth inhibition – cell-based, human, primary screen (AID 575);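 also: 100% = median of untreated cell wells with 0.1% DMSO on each plate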
experimental.setup: HUVEC proliferation, CellTiter-Glo luminescence, 72 h; at 10 µM; stronger effect = lower value
readout.kind: viability (%)
The reply should contain only the number, in %.

                                   molecule  readout_kind  numeric_value
0  Cc1ccc(-c2cc(C(=O)NCc3ccc4c(c3)OCO4)no2)cc1     viability           84.9
1        O=c1[nH]c(N2CCc3ccccc32)nc2c1CCCC2     viability            101
2  CCOC(=O)C1CCN(c2c(Nc3ccc4c(c3)OCCO4)c(=O)c2=O)CC1     viability             88

Lookup result for `CN(C)S(=O)(=O)c1ccc(Oc2ccc(S(=O)(=O)N(C)C)cc2)cc1` ; measured viability: 54.4

Lookup result for O=C(CN(C(=O)CCC(=O)Nc1nccs1)c1ccccc1F)NCC1CCCO1 (configuration not stated) ; measured viability: 105

Lookup result for `O=C(O)CCCC(=O)NCCc1ccncc1` ; measured viability: 97

Lookup result for CCCC1CC(C)(C(=O)Cn2[nH]c(=O)ccc2=O)OC1=O (configuration not stated) ; measured viability: 105

Lookup result for Cc1ccc(CS(=O)(=O)CCC(=O)NCC2CCCO2)cc1 (configuration not stated) ; measured viability: 116

Lookup result for `C[C@]12CCC(=O)C=C1CC[C@@H]1[C@@H]2C(=O)C[C@@]2(C)[C@H]1CC[C@]2(O)C(=O)CO` ; measured viability: 98

Lookup result for `CC(=O)N1CCC2(CC1)CC(=O)c1cc(OCC(=O)NCc3ccc(C)cc3)ccc1O2` ; measured viability: 99.4

====

test.name: growth suppression of PTEN-deleted HCT116, pilot screen, cell-based, HCT116 clonal line, CellTiter-Glo (AID 824);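 also: 0% = 20 µM Hyamine control and 100% = vehicle cell control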
experimental.setup: 60 h, at 10 µM, stronger effect = lower value
Records with an inconclusive call do not appear.
Entries whose viability is below 90% take Criterion met; entries at or above 90% take Criterion not met.

Check out these entries, answers already filled in.
                                   compound           category
0  CN1CCN(c2nc3c(c(=O)n(C)c(=O)n3C)n2CCSc2nc3ccccc3s2)CC1  Criterion not met
1  COC(=O)C1=C(C)N(C)C(=O)NC1c1ccc(C)cc1 (configuration not stated)  Criterion not met
2  O=C(NCc1ccc2c(c1)OCO2)C1CC(=O)N(CCc2ccccc2)C1 (configuration not stated)  Criterion not met
3  CCS(=O)(=O)C(=C(Nc1ccc(OC)cc1)Nc1ccc(OC)cc1)S(=O)(=O)CC  Criterion not met
4  CC(C)N1C(=O)C2C(c3ccccc3O)NC(C)(C(=O)O)C2C1=O (configuration not stated)  Criterion not met
5      O=C(c1ccc(F)cc1)c1cn[nH]c1-c1ccccc1O  Criterion not met
6  COc1ccc(NC2CS(=O)(=O)CC2NCc2ccco2)cc1 (configuration not stated)  Criterion not met
7  Cc1ccc(C(=O)CC(C(=O)O)c2cn(CCC#N)c3ccccc23)cc1 (configuration not stated)  Criterion not met

Incoming: For `CC1(C)CC(=O)c2cc(C(=O)N3CCN(CCO)CC3)c(=O)n(-c3ccc(Cl)cc3)c2C1` , is the recorded viability below the cut-off of 90%?
Outgoing: Criterion not met

Incoming: For `CS(=O)(=O)N(Cc1ccc(C(=O)NCc2ccco2)cc1)c1ccccc1` , is the recorded viability below the cut-off of 90%?
Outgoing: Criterion not met

Incoming: For `COc1cccc(-c2cc(C(F)(F)F)nc(N3CCOCC3)n2)c1` , is the recorded viability below the cut-off of 90%?
Outgoing: Criterion met

Incoming: For `Cn1nnnc1SCC(=O)c1ccco1` , is the recorded viability below the cut-off of 90%?
Outgoing: Criterion not met

Incoming: For `CCOC(=O)COC(=O)c1ccc(O)cc1` , is the recorded viability below the cut-off of 90%?
Outgoing: Criterion not met

Incoming: For `O=C(CSc1nnc(COc2ccccc2)o1)Nc1nccs1` , is the recorded viability below the cut-off of 90%?
Outgoing: Criterion not met

Incoming: For `CCOc1ccc(N(CC(=O)NC(C)(C)C)S(=O)(=O)c2c(C)noc2C)cc1` , is the recorded viability below the cut-off of 90%?
Outgoing: Criterion met

Incoming: For `O=C(Cn1cnc2c(nnn2-c2cccc(Cl)c2)c1=O)N1CCOCC1` , is the recorded viability below the cut-off of 90%?
Outgoing: Criterion not met

Incoming: For `Cc1cc(/C=N/n2cnnc2)c(C)n1-c1ccc(OCc2ccccc2F)cc1` , is the recorded viability below the cut-off of 90%?
Outgoing: Criterion met

Incoming: For `COC(=O)c1cccnc1-n1c(=O)c2cccnc2n(Cc2cccc(OC)c2)c1=O` , is the recorded viability below the cut-off of 90%?
Outgoing: Criterion not met

Incoming: For `COc1ccc(-c2nnc3ccc(SCC(=O)N4CCOCC4)nn23)cc1` , is the recorded viability below the cut-off of 90%?
Outgoing: Criterion not met

Incoming: For `O=C(Nc1ccc(Cl)cc1)N(Cc1cccs1)Cc1cccs1` , is the recorded viability below the cut-off of 90%?
Outgoing: Criterion met

Incoming: For `NS(=O)(=O)c1ccc(CCNC(=O)NC2(C(F)(F)F)Oc3ccccc3O2)cc1` , is the recorded viability below the cut-off of 90%?
Outgoing: Criterion met
